# MEASUREMENT_TARGET: T1, human Activin A (R&D Systems) (human, UniProt P08476 311-426)
# T1 sequence (looked up): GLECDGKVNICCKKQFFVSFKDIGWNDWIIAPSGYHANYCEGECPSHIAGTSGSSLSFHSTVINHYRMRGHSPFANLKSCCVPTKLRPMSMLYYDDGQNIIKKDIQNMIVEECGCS
# ASSAY_PROCEDURE: cell-based or functional assay
MEASURED_PARAMETER: ARE-luciferase IC50

As a guide, the following entries are already answered.
1. 3007_C09 (designed binder) MGVSDVPRDLEVVAATPTSLLISWSLPHRGVANYYRITYGETGGNSPVQEFTVPGRGVTATISGLKPGVDYTITVYAVTLTGANVIIYKPISINYRTEIDKPSQHHHHHH    417 nM
2. 3006_A10 (designed binder) MGVSDVPRDLEVVAATPTSLLISWDAPGGLARYYRITYGETGGNSPVQEFTVIGRGSTATISGLKPGVDYTITVYAVTIDRDGVNHFAPISINYRTEIDKPSQHHHHHH    > 2000 nM
3. 3007_C10 (designed binder) MGVSDVPRDLEVVAATPTSLLISWSLPSSGVAHYYRITYGETGGNSPVQEFTVPGRGVTATISGLKPGVDYTITVYAVTVTNTGVIIYKPISINYRTEIDKPSQHHHHHH    > 2000 nM

Turning now to a further binder:
Returns the measured ARE-luciferase IC50 for the input binder. Input: 3008_G01 (designed binder) MGVSDVPRDLEVVAATPTSLLISWSLPGPGHFHYYRITYGETGGNSPVQEFTVPGRGVTATISGLKPGVDYTITVYAVTVTANQPIIYKPISINYRTEIDKPSQHHHHHH
> 2000 nM
